# condition_summary: in DMF, 278.15 K
measured_metric: solubility (mole fraction)
Give bare numbers.

Field solubility (mole fraction) (entry `CC(=O)OC(OC(C)=O)c1ccc([N+](=O)[O-])o1` ) reads 0.161

----------
# condition_summary: in n-hexane, 298.15 K
measured_metric: solubility (mole fraction)

Field solubility (mole fraction) (entry `CC(=O)OC(OC(C)=O)c1ccc([N+](=O)[O-])o1` ) reads 0.0721

----------
# condition_summary: in ethyl acetate, 313.15 K
measured_metric: solubility (mole fraction)

Field solubility (mole fraction) (entry `CC(=O)OC(OC(C)=O)c1ccc([N+](=O)[O-])o1` ) reads 0.0283

----------
# condition_summary: in acetonitrile, 298.15 K
measured_metric: solubility (mole fraction)
Numbers only.

Field solubility (mole fraction) (entry `CC(=O)OC(OC(C)=O)c1ccc([N+](=O)[O-])o1` ) reads 0.0052
